- MEASURED_ON: Intercellular adhesion molecule (ICAM-1), Integrin alpha-L/beta-2 (Homo sapiens, UniProt P05107+P20701)
- Sequence (P20701 whole entry): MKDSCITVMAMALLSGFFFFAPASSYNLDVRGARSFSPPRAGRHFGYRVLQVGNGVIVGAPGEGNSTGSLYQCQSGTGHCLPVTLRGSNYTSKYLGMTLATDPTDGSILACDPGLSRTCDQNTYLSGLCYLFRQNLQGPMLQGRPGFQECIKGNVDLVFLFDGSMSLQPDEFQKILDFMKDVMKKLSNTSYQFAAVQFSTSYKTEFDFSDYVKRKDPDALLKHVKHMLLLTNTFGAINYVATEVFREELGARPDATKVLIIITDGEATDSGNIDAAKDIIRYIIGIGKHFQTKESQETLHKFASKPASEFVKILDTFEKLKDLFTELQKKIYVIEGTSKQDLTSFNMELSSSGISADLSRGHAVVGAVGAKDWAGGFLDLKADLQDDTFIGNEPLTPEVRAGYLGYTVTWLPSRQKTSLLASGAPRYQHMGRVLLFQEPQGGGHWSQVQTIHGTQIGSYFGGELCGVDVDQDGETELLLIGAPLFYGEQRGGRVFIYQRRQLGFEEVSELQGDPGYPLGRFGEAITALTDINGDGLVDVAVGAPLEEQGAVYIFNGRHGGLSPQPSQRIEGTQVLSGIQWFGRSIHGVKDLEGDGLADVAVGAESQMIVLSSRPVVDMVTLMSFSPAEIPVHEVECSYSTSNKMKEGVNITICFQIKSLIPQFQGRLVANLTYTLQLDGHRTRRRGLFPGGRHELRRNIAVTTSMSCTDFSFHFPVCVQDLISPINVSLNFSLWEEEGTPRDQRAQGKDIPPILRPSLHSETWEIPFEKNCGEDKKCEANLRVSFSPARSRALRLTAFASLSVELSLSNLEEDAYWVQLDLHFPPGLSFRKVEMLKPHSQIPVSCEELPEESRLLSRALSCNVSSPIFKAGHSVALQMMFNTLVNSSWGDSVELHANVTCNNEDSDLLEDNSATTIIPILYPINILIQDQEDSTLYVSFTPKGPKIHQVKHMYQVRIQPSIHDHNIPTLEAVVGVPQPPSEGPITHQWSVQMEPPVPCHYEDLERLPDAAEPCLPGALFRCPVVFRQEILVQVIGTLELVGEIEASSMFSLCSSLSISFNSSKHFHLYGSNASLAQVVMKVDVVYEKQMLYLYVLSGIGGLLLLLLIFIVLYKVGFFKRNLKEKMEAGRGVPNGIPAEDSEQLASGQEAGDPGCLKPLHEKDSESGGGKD
- Sequence (P05362 whole entry, further chain): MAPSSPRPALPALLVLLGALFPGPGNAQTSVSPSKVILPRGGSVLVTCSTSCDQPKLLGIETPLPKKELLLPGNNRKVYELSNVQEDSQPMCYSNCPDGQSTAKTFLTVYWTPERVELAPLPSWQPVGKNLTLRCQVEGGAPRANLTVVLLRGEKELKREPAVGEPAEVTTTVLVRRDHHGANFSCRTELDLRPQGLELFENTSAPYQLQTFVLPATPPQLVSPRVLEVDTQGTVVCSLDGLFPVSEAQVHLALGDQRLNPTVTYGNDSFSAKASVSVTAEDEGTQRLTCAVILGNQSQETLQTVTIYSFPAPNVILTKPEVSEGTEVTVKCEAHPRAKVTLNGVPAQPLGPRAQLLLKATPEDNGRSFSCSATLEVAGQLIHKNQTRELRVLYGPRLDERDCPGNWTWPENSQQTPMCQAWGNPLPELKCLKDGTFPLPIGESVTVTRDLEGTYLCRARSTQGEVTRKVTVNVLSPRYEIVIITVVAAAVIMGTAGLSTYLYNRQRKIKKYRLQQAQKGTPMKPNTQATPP
- Sequence (P05107 whole entry): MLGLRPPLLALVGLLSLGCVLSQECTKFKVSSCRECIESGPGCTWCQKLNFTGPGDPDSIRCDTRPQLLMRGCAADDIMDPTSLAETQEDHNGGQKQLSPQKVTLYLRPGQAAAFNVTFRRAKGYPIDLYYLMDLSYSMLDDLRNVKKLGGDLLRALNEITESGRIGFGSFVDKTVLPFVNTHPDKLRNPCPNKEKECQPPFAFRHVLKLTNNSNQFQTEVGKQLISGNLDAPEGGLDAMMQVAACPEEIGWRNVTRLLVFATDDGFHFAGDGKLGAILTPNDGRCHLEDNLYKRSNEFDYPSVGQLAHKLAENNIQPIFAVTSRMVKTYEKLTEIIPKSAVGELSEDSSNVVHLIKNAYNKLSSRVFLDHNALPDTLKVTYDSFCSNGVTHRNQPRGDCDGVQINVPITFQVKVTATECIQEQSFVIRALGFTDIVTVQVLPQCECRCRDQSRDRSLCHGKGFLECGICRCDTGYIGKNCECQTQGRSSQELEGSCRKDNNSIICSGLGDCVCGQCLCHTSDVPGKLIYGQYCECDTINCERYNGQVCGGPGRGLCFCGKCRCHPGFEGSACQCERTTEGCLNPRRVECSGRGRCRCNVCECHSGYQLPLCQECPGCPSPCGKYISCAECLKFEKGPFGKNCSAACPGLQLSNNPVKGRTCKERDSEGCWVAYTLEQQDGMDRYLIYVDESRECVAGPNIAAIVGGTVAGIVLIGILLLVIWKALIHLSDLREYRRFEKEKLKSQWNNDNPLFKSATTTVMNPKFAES
- TEST_PROTOCOL: Inhibitory concentration against integrin LFA-1/ICAM-1 binding complex

| COMPOUND | IC50, nM |
| --- | --- |
| CC(C)c1ccccc1Sc1ccc(-c2cc(NCCCn3ccnc3)ncn2)cc1C(F)(F)F | 760 |
| O=C(O)[C@@H]1C[C@@H](O)CN1c1cc(-c2ccc(Sc3ccc4c(c3)OCCO4)c(C(F)(F)F)c2)ccn1 | 192 |
| COc1ccccc1Sc1ccc(-c2ccnc(N3C[C@H](O)C[C@H]3C(=O)O)c2)cc1C(F)(F)F | 214 |
| CC(C)c1ccccc1Sc1ccc(-c2ccnc(N3CCC(O)CC3)c2)cc1C(F)(F)F | 76 |
| CC(C)c1ccccc1Sc1ccc(-c2cc(N3CCCC(C(=O)O)C3)ncn2)cc1C(F)(F)F (stereo not drawn) | 120 |
| CC(C)c1ccccc1Sc1ccc(-c2ccnc(N3CCCCC3)c2)cc1C(F)(F)F | 1000 |
| OCCC1CCN(c2cc(-c3ccc(Sc4ccc5c(c4)OCCO5)c(C(F)(F)F)c3)ccn2)CC1 | 132 |
| COc1ccccc1Sc1ccc(-c2ccnc(N3CC[C@@H](O)C3)c2)cc1C(F)(F)F | 77 |
| O=C(O)C1CCCN(c2cc(-c3ccc(Sc4ccc5c(c4)OCCO5)c(C(F)(F)F)c3)ccn2)C1 (stereo in doubt) | 30 |
| CC(C)c1ccccc1Sc1ccc(-c2ccnc(N3CCC(CCO)CC3)c2)cc1C(F)(F)F | 160 |
| CC(C)c1ccccc1Sc1ccc(-c2cc(N3CCCC3CO)ncn2)cc1C(F)(F)F (stereo in doubt; 10w) | 680 |
| COc1ccccc1Sc1ccc(-c2ccnc(N3CCC(CO)CC3)c2)cc1C(F)(F)F | 80 |
| CC(C)c1ccccc1Sc1ccc(-c2ccnc(N3CCC[C@H]3C(=O)O)c2)cc1C(F)(F)F | 26 |
| CCN(C)c1cc(-c2ccc(Sc3ccccc3C(C)C)c(C(F)(F)F)c2)ncn1 | 680 |
| CC(C)c1ccccc1Sc1ccc(-c2ccnc(N3CCC(O)C3)c2)cc1C(F)(F)F (stereo not drawn) | 93 |
| CC(C)c1ccccc1Sc1ccc(-c2ccnc(N3CCC[C@H]3CO)c2)cc1C(F)(F)F (stereo in doubt) | 480 |
| CC(C)c1ccccc1Sc1ccc(-c2cc(N3CCCC(c4nn[nH]n4)C3)ncn2)cc1C(F)(F)F (stereo not drawn) | 51 |
| CC(=O)N(C)[C@@H]1CCN(c2cc(-c3ccc(Sc4ccccc4C(C)C)c(C(F)(F)F)c3)ccn2)C1 | 112 |

* * *

- MEASURED_ON: Intercellular adhesion molecule (ICAM-1), Integrin alpha-L/beta-2 (Homo sapiens, UniProt P05107+P20701)
- TEST_PROTOCOL: Inhibitory concentration against integrin LFA-1/ICAM-1 binding complex
pIC50: −log10 of the molar value.
This listing pairs molecules with measured pIC50.
MEASURED_PROPERTY: pIC50

| MOLECULE | ENDPOINT_RESULT |
| --- | --- |
| CC(C)c1ccccc1Sc1ccc(-c2cc(N3CCCC(CO)C3)ncn2)cc1C(F)(F)F (centres undefined) | 6.64 |
| CC(C)c1ccccc1Sc1ccc(-c2cc(N3CCCC(C(N)=O)C3)ncn2)cc1C(F)(F)F (centres undefined) | 6.47 |
| OC[C@H]1CCCN1c1cc(-c2ccc(Sc3ccc4c(c3)OCCO4)c(C(F)(F)F)c2)ccn1 | 6.29 |
| CC(=O)N(C)[C@@H]1CCN(c2cc(-c3ccc(Sc4ccc5c(c4)OCCO5)c(C(F)(F)F)c3)ccn2)C1 | 6.77 |
| CC(C)c1ccccc1Sc1ccc(-c2ccnc(N3CCC(C(N)=O)CC3)c2)cc1C(F)(F)F | 7.14 |
| CCOC(=O)N1CCN(c2cc(-c3ccc(Sc4ccccc4C(C)C)c(C(F)(F)F)c3)ncn2)CC1 | 6.33 |
| CC(C)c1ccccc1Sc1ccc(-c2cc(N3CCC(CCO)CC3)ncn2)cc1C(F)(F)F | 6.64 |
| CCCN1CCN(c2cc(-c3ccc(Sc4ccc5c(c4)OCCO5)c(C(F)(F)F)c3)ccn2)CC1 | 6.13 |
| CC(C)c1ccccc1Sc1ccc(-c2cc(N3CC[C@@H](O)C3)ncn2)cc1C(F)(F)F | 6.80 |

* * *

- MEASURED_ON: Intercellular adhesion molecule (ICAM-1), Integrin alpha-L/beta-2 (Homo sapiens) (UniProt P20701+P05362+P05107)
- TEST_PROTOCOL: Inhibitory activity against ICAM-1/integrin LFA-1 binding complex at 1 uM concentration
- Format: protein-complex assay
The threshold is inclusive: inhibition of exactly 40% counts as 1.0; values below receive 0.0.

| SMILES_STR | CATEGORY_LABEL |
| --- | --- |
| CCN1CCN(c2cc(-c3ccc(Sc4ccccc4C(C)C)c(C(F)(F)F)c3)ccn2)CC1 | 1.0 |
| Cc1ccc(C)c(N2CCN(c3cc(-c4ccc(Sc5ccccc5C(C)C)c(C(F)(F)F)c4)ccn3)CC2)c1 | 0.0 |
| CC(C)c1ccccc1Sc1ccc(-c2ccnc(N3CCN(C4CCCCC4)CC3)c2)cc1C(F)(F)F | 0.0 |
| CC(C)c1ccccc1Sc1ccc(-c2ccnc(N3CCCCCC3)c2)cc1C(F)(F)F | 0.0 |
| CC(C)c1ccccc1Sc1ccc(-c2ccnc(N3CCCC(C)(C)C3)c2)cc1C(F)(F)F | 0.0 |
| CCCC1CCN(c2cc(-c3ccc(Sc4ccccc4C(C)C)c(C(F)(F)F)c3)ccn2)CC1 | 0.0 |
| CC(C)c1ccccc1Sc1ccc(-c2ccnc(N3CCN(C)CC3)c2)cc1C(F)(F)F | 1.0 |
| CC(C)c1ccccc1Sc1ccc(-c2ccnc(N3CCN(c4cnccn4)CC3)c2)cc1C(F)(F)F | 1.0 |

* * *

- MEASURED_ON: Intercellular adhesion molecule (ICAM-1), Integrin alpha-L/beta-2 (Homo sapiens, UniProt P05107+P20701)
- TEST_PROTOCOL: Inhibitory concentration against integrin LFA-1/ICAM-1 binding complex
pIC50: −log10 of the molar value.
This listing pairs molecules with measured pIC50.

| MOLECULE | pIC50 |
| --- | --- |
| COc1ccccc1Sc1ccc(-c2ccnc(N3CCC[C@H]3C(=O)O)c2)cc1C(F)(F)F | 7.10 |
| CC(C)c1ccccc1Sc1ccc(-c2ccnc(N3CCCC(C(=O)O)C3)c2)cc1C(F)(F)F (stereo in doubt) | 7.52 |
| CC(C)c1ccccc1Sc1ccc(-c2cc(N3CCC(NC(=O)OC(C)(C)C)C3)ncn2)cc1C(F)(F)F (stereo not drawn) | 6.26 |
| COc1ccccc1Sc1ccc(-c2ccnc(N3CCCN(C(C)=O)CC3)c2)cc1C(F)(F)F | 6.77 |
| O=C(O)[C@@H]1CCCN1c1cc(-c2ccc(Sc3ccc4c(c3)OCCO4)c(C(F)(F)F)c2)ccn1 | 6.83 |
| CC1CN(c2cc(-c3ccc(Sc4ccccc4C(C)C)c(C(F)(F)F)c3)ncn2)CC(C)O1 (stereo not drawn) | 6.31 |
| CC(C)c1ccccc1Sc1ccc(-c2ccnc(N3CC[C@@H](O)[C@H](C(=O)O)C3)c2)cc1C(F)(F)F | 7.37 |
| CC(C)c1ccccc1Sc1ccc(-c2ccnc(N3C[C@H](O)C[C@H]3C(=O)O)c2)cc1C(F)(F)F | 7.05 |

* * *

- MEASURED_ON: Intercellular adhesion molecule (ICAM-1), Integrin alpha-L/beta-2 (Homo sapiens, UniProt P05107+P20701)
- TEST_PROTOCOL: Inhibitory concentration against integrin LFA-1/ICAM-1 binding complex
This listing pairs molecules with measured log10 IC50.
MEASURED_PROPERTY: log10 IC50 (log10 of the value in nM)

| SMILES_STR | log10 IC50 |
| --- | --- |
| CCCN1CCN(c2cc(-c3ccc(Sc4ccccc4OC)c(C(F)(F)F)c3)ccn2)CC1 | 2.95 |
| CC(C)c1ccccc1Sc1ccc(-c2ccnc(N3CCC(c4nnn[nH]4)CC3)c2)cc1C(F)(F)F | 1.71 |
| CC(C)c1ccccc1Sc1ccc(-c2cc(N3CCC(O)CC3)ncn2)cc1C(F)(F)F | 2.36 |
| COc1ccccc1Sc1ccc(-c2ccnc(N3CCC(O)CC3)c2)cc1C(F)(F)F | 2.11 |
| COc1ccccc1Sc1ccc(-c2ccnc(N3CCC(CCO)CC3)c2)cc1C(F)(F)F | 2.05 |
| OC1CCN(c2cc(-c3ccc(Sc4ccc5c(c4)OCCO5)c(C(F)(F)F)c3)ccn2)CC1 | 2.48 |
| CC(C)c1ccccc1Sc1ccc(-c2coc(N3CCCCC3)n2)cc1C(F)(F)F | 4.18 |
| CC(C)c1ccccc1Sc1ccc(-c2coc(N3CCOCC3)n2)cc1C(F)(F)F | 3.56 |
| CC(C)c1ccccc1Sc1ccc(-c2cc(N3CCC(C(=O)O)CC3)ncn2)cc1C(F)(F)F | 2.08 |
